# MIC values compiled below
tested on: Candida albicans; assay: Antifungal activity against Candida albicans ATCC 64124 by CLSI […] protocol based method; assay type: functional

CCOP(=O)(CCCCCCn1nnc2c1C(=O)c1ccccc1C2=O)OCC > 128 mg/L
CCOP(=O)(CCn1nnc2c1C(=O)c1ccccc1C2=O)OCC > 128 mg/L
O=C1c2ccccc2C(=O)c2c1nnn2CCCCCCP(=O)([O-])[O-].[K+].[K+] 32 to 64 mg/L
CCOP(=O)(CCCn1nnc2c1C(=O)c1ccccc1C2=O)OCC > 128 mg/L
C[C@@H](c1ncncc1F)[C@](O)(Cn1cncn1)c1ccc(F)cc1F > 256 mg/L

Prompt: Could you tell me which MIC is on file for CCOP(=O)(CCCCCCCCCCn1nnc2c1C(=O)c1ccccc1C2=O)OCC ?
Completion: > 128 mg/L

Prompt: Could you tell me which MIC is on file for CCCCCCCCS(=O)(=O)OC[C@H]1O[C@H](O[C@@H]2[C@@H](O)[C@H](O[C@H]3O[C@H](CN)[C@@H](O)[C@H](O)[C@H]3O)[C@@H](N)C[C@H]2N)[C@H](O)[C@@H](N)[C@@H]1O ?
Completion: 256 mg/L

Prompt: Could you tell me which MIC is on file for O=C1c2ccccc2C(=O)c2c1nnn2CCCP(=O)([O-])[O-].[K+].[K+] ?
Completion: 32 mg/L

Prompt: Could you tell me which MIC is on file for O=C1c2ccccc2C(=O)c2c1nnn2CCCCCCCCP(=O)([O-])[O-].[K+].[K+] ?
Completion: 16 to 32 mg/L

Prompt: Could you tell me which MIC is on file for CCOP(=O)(CCCCCCCCn1nnc2c1C(=O)c1ccccc1C2=O)OCC ?
Completion: > 128 mg/L

Prompt: Could you tell me which MIC is on file for O=C1c2ccccc2C(=O)c2c1nnn2CCCCCCCCCCP(=O)([O-])[O-].[K+].[K+] ?
Completion: 128 mg/L

Prompt: Could you tell me which MIC is on file for CCOP(=O)(CCCCn1nnc2c1C(=O)c1ccccc1C2=O)OCC ?
Completion: > 128 mg/L

Prompt: Could you tell me which MIC is on file for O=C1c2ccccc2C(=O)c2c1nnn2CCP(=O)([O-])[O-].[K+].[K+] ?
Completion: > 128 mg/L

###

system: Rhodotorula mucilaginosa; test: Antifungal activity against Rhodotorula pilimanae by CLSI […] protocol based method; type: functional
MEASUREMENT_KIND: MIC

For orientation, consider the following solved cases.
CCOP(=O)(CCCCCCCCn1nnc2c1C(=O)c1ccccc1C2=O)OCC > 128 µg/mL
CCOP(=O)(CCn1nnc2c1C(=O)c1ccccc1C2=O)OCC 64 to 128 µg/mL
CCOP(=O)(CCCn1nnc2c1C(=O)c1ccccc1C2=O)OCC 64 to 128 µg/mL
CCOP(=O)(CCCCCCn1nnc2c1C(=O)c1ccccc1C2=O)OCC 64 to 128 µg/mL

// next entry
Prompt: Which measured MIC belongs to O=C1c2ccccc2C(=O)c2c1nnn2CCCCCCCCCCP(=O)([O-])[O-].[K+].[K+] , tested on Rhodotorula mucilaginosa?
Completion: 64 µg/mL

###

system: Candida albicans; assay: Antifungal activity against Candida albicans MYA2876 by CLSI […] protocol based method; type: functional
MEASUREMENT_KIND: MIC

For orientation, consider the following solved cases.
CCOP(=O)(CCn1nnc2c1C(=O)c1ccccc1C2=O)OCC > 128 µg/mL
CCOP(=O)(CCCCCCCCCCn1nnc2c1C(=O)c1ccccc1C2=O)OCC > 128 µg/mL
CCOP(=O)(CCCn1nnc2c1C(=O)c1ccccc1C2=O)OCC > 128 µg/mL

// next entry
Prompt: Which measured MIC belongs to C[C@@H](c1ncncc1F)[C@](O)(Cn1cncn1)c1ccc(F)cc1F , tested on Candida albicans?
Completion: 0.125 µg/mL
